- tested.system: T1, Human PD-L2-Fc (human, UniProt Q9BQ51 20-220)
- T1 construct: also called dimeric PD-L2; PD-L2 (dimeric ligand); not shown: human IgG1 Fc constant region
- T1 sequence: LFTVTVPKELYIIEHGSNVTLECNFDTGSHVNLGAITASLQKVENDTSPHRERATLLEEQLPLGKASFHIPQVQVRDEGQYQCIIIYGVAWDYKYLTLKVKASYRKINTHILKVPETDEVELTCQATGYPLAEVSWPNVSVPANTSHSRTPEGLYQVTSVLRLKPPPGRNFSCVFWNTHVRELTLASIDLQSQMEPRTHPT
- measurement.description: ForteBio, Fab, monovalent
measured.endpoint: pKd
Recall that pKd is obtained by taking minus log10 of the concentration measured in molar.

Sample BiPDL4-44 Fab (Fab, V domains shown, Fab made by papain digestion of the IgG) VH: QVQLVESGGGVIQPGRSLRLSCAASGFTFSAYLMHWVRQAPGKGLEWVAAIGYDGMNKYYADSVKGRFTISRDNSKNTLYLQMNSLRAEDTAVYYCARAGIEYSYAYTDYWGQGTLVTVSS VL: EIVLTQSPGTLSLSPGERATLSCRASHSVVSSYLAWYQQKPGQAPRLLIYGASSREDGIPDRFSGSGSGTDFTLTISRLEPEDFAVYYCVQFGWWPPRTFGGGTKVEIK — what was its pKd? 9.36

Origin of measurements: patent US20250059282A1
